Attribution: patent US20240270821A1

molecular target: hGcgR (Homo sapiens); assay: Functional cAMP activation in the presence of 0.1% casein (no HSA); assay type: cell-based; conditions: in the presence of 0.1% casein (no HSA); geometric mean; read-out: Relative cAMP EC50, hGcgR;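 also: intracellular cAMP rise after 30 min at 37 °C, read by HTRF against a cAMP standard curve, scaled from buffer only (0%) to maximal control ligand response (100%)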
Sequence (P47871 26-477): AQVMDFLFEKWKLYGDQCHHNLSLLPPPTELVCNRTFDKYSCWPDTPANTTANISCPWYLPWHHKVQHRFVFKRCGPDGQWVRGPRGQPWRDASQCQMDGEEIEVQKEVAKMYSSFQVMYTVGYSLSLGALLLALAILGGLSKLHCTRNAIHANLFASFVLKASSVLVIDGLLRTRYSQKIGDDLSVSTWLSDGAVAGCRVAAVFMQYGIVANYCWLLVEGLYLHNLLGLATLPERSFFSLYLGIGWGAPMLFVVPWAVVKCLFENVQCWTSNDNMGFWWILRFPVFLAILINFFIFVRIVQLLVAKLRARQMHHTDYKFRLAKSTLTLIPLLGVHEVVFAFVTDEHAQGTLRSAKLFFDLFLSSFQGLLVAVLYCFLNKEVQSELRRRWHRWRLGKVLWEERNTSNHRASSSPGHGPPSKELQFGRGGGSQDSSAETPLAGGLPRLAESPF
pEC50: −log10 of the molar value. Starred links: 1 amine or outer side, 2 acyl side, 3 side chain; linkers in the order of their positions; H or OH if unused. Non-standard residues stand in square brackets, D forms with d. Groups on a side chain read outwards from the residue. *: point of attachment. C18 diacid = O=C(O)CCCCCCCCCCCCCCCCC(=O)*; αMePhe(2-F) = C[C@](N)(Cc1ccccc1F)C(=O)O; γGlu = O=C(O)[C@H](CCC(=O)[*:2])N[*:1]; αMe4Pal = C[C@](N)(Cc1ccncc1)C(=O)O; αMeY = C[C@](N)(Cc1ccc(O)cc1)C(=O)O; αMeF = C[C@](N)(Cc1ccccc1)C(=O)O; 4Pal = N[C@@H](Cc1ccncc1)C(=O)O; αMeL = CC(C)C[C@](C)(N)C(=O)O; αMeS = C[C@](N)(CO)C(=O)O; Orn = NCCC[C@H](N)C(=O)O; Dap = NC[C@H](N)C(=O)O; AEEA = NCCOCCOCC(=O)O; Aib = CC(C)(N)C(=O)O
metric: pEC50

{"substance": "H-Y[Aib]QGT[αMeF]TSD[4Pal][αMeS]I[αMeL]LD[Orn]K([γGlu-γGlu-C18 diacid])AQ[αMe4Pal]EFI[dE][αMeY]LIEGGPSSGEPPPSGGGE-NH2 [Example 1175]", "value": 8.68}
{"substance": "H-Y[Aib]QGTFTSD[4Pal][αMeS]Q[αMeL]LD[Orn]K([dE-γGlu-C18 diacid])AQ[αMe4Pal]QFIQ[αMeY]LIE[Aib]GPSSGAPPPSGGGE-NH2 [Example 1186]", "value": 8.84}
{"substance": "H-Y[Aib]QGTFTSD[4Pal]SQ[αMeL]LD[Orn]K([γGlu-γGlu-C18 diacid])AQ[αMe4Pal]AFIE[αMeY]LIEGGPSSGAPPPSGSEE-NH2 [Example 1043]", "value": 7.77}
{"substance": "H-Y[Aib]QGTFTSDFS[Orn][αMeL]LDKK([AEEA-γGlu-C18 diacid])AQ[Aib]AFIEYLLAGGPSSGEPPPSGE-NH2 [Example 97]", "value": 8.17}
{"substance": "H-Y[Aib]QGTFTSD[4Pal]SQ[αMeL]LD[Orn]K([Glu-γGlu-C18 diacid])AQ[αMe4Pal]AFIEYLLAGGPSSGAPPPSGSEE-NH2 [Example 1057]", "value": 8.28}
{"substance": "H-Y[Aib]QGTFTSDFS[Orn][αMeL]LDKK([γGlu-γGlu-C18 diacid])AQ[Aib]AFIEYLLEGGPSSGAPPPGGS-NH2 [Example 198]", "value": 8.16}
{"substance": "H-Y[Aib]QGTFTSDFS[Dap][αMeL]LDKK([γGlu-γGlu-C18 diacid])AQ[Aib]AFIEYLLE[Aib]GPSSGAPPPSGS-NH2 [Example 203]", "value": 8.16}
{"substance": "H-Y[Aib]QGT[αMePhe(2-F)]TSD[4Pal][αMeS]I[αMeL]LD[Orn]K([γGlu-γGlu-C18 diacid])AQ[αMe4Pal]EFI[dE][αMeY]LVEGGPSSGAPPPSGE-NH2 [Example 1160]", "value": 8.62}
{"substance": "H-Y[Aib]QGTFTSDFS[Orn][αMeL]LDKK([AEEA-γGlu-C18 diacid])AQ[Aib]AFIEWLLEGGPSSGAPPPEGE-NH2 [Example 120]", "value": 8.23}
{"substance": "H-Y[Aib]QGTFTSD[4Pal]SK[αMeL]LDKK([AEEA-γGlu-C18 diacid])AQ[Aib]AFIEYLIE[Aib]GPSSGAPPPSGSE-NH2 [Example 901]", "value": 8.04}
{"substance": "H-Y[Aib]QGTFTSDFS[Orn][αMeL]LDKK([AEEA-AEEA-γGlu-C18 diacid])AQ[Aib]AFIEYLLE[dA]GPSSGEPPPSGT-NH2 [Example 156]", "value": 8.44}
